B1: CFHR2 (parent)
chain: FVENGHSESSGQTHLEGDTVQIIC

Variants of: B1
Assay: protein stability index of a GFP-peptide fusion (GPS, HEK-293T) (PSI 1-6); higher = more stable;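 note: lentivirally expressed fusions sorted by FACS into six bins by GFP to DsRed ratio, PSI derived from sequencing read proportions per bin multiplied by bin number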
Conditions: c terminus: a fixed tail appended

# chainSequence, protein stability index
data = [
    ("FWENGHSESSGQTHLEGDTVQIIC", 3.35),
    ("FVENGHSESSGQTDLEGDTVQIIC", 3.29),
    ("FQENGHSESSGQTHLEGDTVQIIC", 3.81),
    ("FVENGTSESSGQTHLEGDTVQIIC", 2.79),
    ("FVENGHSESSGQTHLEGDTVQINC", 3.77),
    ("FVENGHSESSGQTHLEADTVQIIC", 2.3),
    ("FVENGHSESKGQTHLEGDTVQIIC", 2.65),
    ("FVENGHSESSGQTHLEGDTVQVIC", 3.02),
    ("MVENGHSESSGQTHLEGDTVQIIC", 4.23),
    ("FKENGHSESSGQTHLEGDTVQIIC", 4.01),
    ("FVENGASESSGQTHLEGDTVQIIC", 3.02),
    ("FVENGHAESSGQTHLEGDTVQIIC", 2.72),
    ("FVEYGHSESSGQTHLEGDTVQIIC", 2.37),
    ("FVENGHDESSGQTHLEGDTVQIIC", 3.09),
    ("FVENGHSEQSGQTHLEGDTVQIIC", 3.14),
    ("FVENGHSESSGQTHLEGDGVQIIC", 3.25),
    ("FVENGHSESSGQTHWEGDTVQIIC", 1.53),
    ("FVENGSSESSGQTHLEGDTVQIIC", 2.92),
    ("FVENGHSESSGQKHLEGDTVQIIC", 2.48),
    ("FVENGHSESSGQTCLEGDTVQIIC", 1.96),
    ("FVENGHSESSVQTHLEGDTVQIIC", 2.67),
    ("FVLNGHSESSGQTHLEGDTVQIIC", 1.81),
    ("FRENGHSESSGQTHLEGDTVQIIC", 3.96),
    ("FVENGHSVSSGQTHLEGDTVQIIC", 2.45),
    ("FVENGHSESSGQTHLEGDTVHIIC", 2.24),
    ("FVENGHSESSGQTHLEKDTVQIIC", 2.54),
    ("FVENGHSESSYQTHLEGDTVQIIC", 2.04),
    ("FVENCHSESSGQTHLEGDTVQIIC", 2.03),
    ("FVENGHSESSWQTHLEGDTVQIIC", 2.33),
    ("FVENGHSESSGQTHLEGDTVQIIK", 3.29),
    ("FVENGHSESSGQTHLEGDNVQIIC", 3.71),
    ("FVENGHSKSSGQTHLEGDTVQIIC", 1.97),
    ("FVENGHFESSGQTHLEGDTVQIIC", 1.43),
    ("FVENGHSESSGCTHLEGDTVQIIC", 1.86),
    ("FVETGHSESSGQTHLEGDTVQIIC", 2.51),
    ("FVENGHSRSSGQTHLEGDTVQIIC", 2.28),
    ("FVENGHSENSGQTHLEGDTVQIIC", 2.76),
    ("FVENGHSEASGQTHLEGDTVQIIC", 2.5),
    ("FVENGHTESSGQTHLEGDTVQIIC", 3.24),
    ("FVENGHSESRGQTHLEGDTVQIIC", 2.59),
    ("FVENGHSESSGQTHLELDTVQIIC", 2.08),
    ("FVENGHSESSGQTHEEGDTVQIIC", 3.15),
    ("FVENGHSESSGQTHLEYDTVQIIC", 1.73),
    ("FVENGHSESSGQQHLEGDTVQIIC", 3.18),
    ("FVENGHSESSGQTHLSGDTVQIIC", 2.71),
    ("FVENGHSESSGRTHLEGDTVQIIC", 1.92),
    ("FVENGHSESSGQTHLEGDRVQIIC", 2.37),
    ("FVENGHSESSGQTHLEGSTVQIIC", 2.58),
    ("FVENGHCESSGQTHLEGDTVQIIC", 2.34),
    ("FVENGHSESSTQTHLEGDTVQIIC", 2.86),
    ("VVENGHSESSGQTHLEGDTVQIIC", 3.92),
    ("FVENGHSESSDQTHLEGDTVQIIC", 3.4),
    ("FVENGGSESSGQTHLEGDTVQIIC", 3.12),
    ("FVENGHSESSGQTHLENDTVQIIC", 2.9),
    ("FVENGHSESSGQTHLRGDTVQIIC", 2.63),
    ("FVEGGHSESSGQTHLEGDTVQIIC", 2.59),
    ("FVENGLSESSGQTHLEGDTVQIIC", 2.19),
    ("FVENGHSESSGQTHLEGDTVEIIC", 3.15),
    ("FVENGHSESSGQTHPEGDTVQIIC", 3.2),
    ("FVENGHSEMSGQTHLEGDTVQIIC", 2.32),
    ("FVENGHWESSGQTHLEGDTVQIIC", 4.33),
    ("FVENGHSESSGQTHLEGDTAQIIC", 3.64),
    ("FVENGHSESSGQTHLIGDTVQIIC", 2.25),
    ("FVENGHSESSGQTHLEGDTVQAIC", 3.56),
    ("FVENGHSESSGQTHLEGDWVQIIC", 1.53),
    ("FVERGHSESSGQTHLEGDTVQIIC", 2.05),
    ("FVENHHSESSGQTHLEGDTVQIIC", 2.49),
    ("FVENGHSESSGQTHLDGDTVQIIC", 3.12),
    ("FVENGHSESSGQTNLEGDTVQIIC", 3.43),
    ("FVENGHSESSGVTHLEGDTVQIIC", 2.08),
    ("FVENGHSESSGQTHLEGDTVQIIV", 1.95),
    ("FVENGHSESSGQTHLEGDTVQIDC", 4.42),
    ("FVENGHSESAGQTHLEGDTVQIIC", 2.65),
    ("FVENGHSESSGQTHLEGTTVQIIC", 2.31),
    ("FVENGHSESSGQTVLEGDTVQIIC", 2.95),
    ("FVENGHSESSGQTHLECDTVQIIC", 2.28),
    ("FVENGHSESSGQTWLEGDTVQIIC", 1.75),
    ("FVENGHSESSQQTHLEGDTVQIIC", 2.96),
    ("FVENGHSESSGQTHLEGDTVQGIC", 3.85),
    ("FVENGHSESSGQTHLEGDTVQILC", 3.71),
    ("FVENGHSESSGQTHLEGDTPQIIC", 3.26),
    ("FVEAGHSESSGQTHLEGDTVQIIC", 2.42),
    ("FVENGESESSGQTHLEGDTVQIIC", 3.65),
    ("FVENGHSESSGQTHLEGDTQQIIC", 4.09),
    ("FVENGHYESSGQTHLEGDTVQIIC", 1.64),
    ("FVENGDSESSGQTHLEGDTVQIIC", 3.87),
    ("FVENGHSFSSGQTHLEGDTVQIIC", 1.64),
    ("FVENGHSESSGQTPLEGDTVQIIC", 2.83),
    ("FVENGHSEESGQTHLEGDTVQIIC", 3.22),
    ("FVENWHSESSGQTHLEGDTVQIIC", 3.48),
    ("QVENGHSESSGQTHLEGDTVQIIC", 4.37),
]
